Entry source: paper PMC7158045

# Target Entity: ZmDRIK1 (DROUGHT RESPONSIVE INACTIVE KINASE 1), kinase domain (Zea mays)
# Construct: gene ZEAMMB73_Zm00001d028770; ZmDRIK1-KD R187-S514 (kinase domain)
# Sequence (C0P4K9 187-514): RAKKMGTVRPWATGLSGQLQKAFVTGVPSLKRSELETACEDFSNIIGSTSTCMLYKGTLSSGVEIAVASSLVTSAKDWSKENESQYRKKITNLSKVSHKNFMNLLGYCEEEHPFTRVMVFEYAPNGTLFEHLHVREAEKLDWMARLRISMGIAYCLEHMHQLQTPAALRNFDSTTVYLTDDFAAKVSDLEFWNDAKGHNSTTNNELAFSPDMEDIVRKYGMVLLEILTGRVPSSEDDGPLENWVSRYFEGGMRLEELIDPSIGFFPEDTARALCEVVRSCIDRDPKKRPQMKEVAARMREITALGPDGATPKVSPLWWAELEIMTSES
# Experiment Notes: biochemical
# Test Settings: read-out: dTm B, sheet ZmDRIK1-R187-S514;; DSF, Boltzmann fit, 0.1% DMSO
Counter-ions that a name gives are not always drawn.
Measurement Name: ΔTm at 10 µM (°C)

[
  {
    "Molecule": "N=C(N)NC(=N)NCCc1ccccc1 [Phenformin HCl]",
    "ΔTm at 10 µM (°C)": -0.596
  },
  {
    "Molecule": "N[C@@H]1CCCN(c2c(/C=C3\\SC(=O)NC3=O)cccc2-c2ccccc2)C1",
    "ΔTm at 10 µM (°C)": -0.564
  }
]

[1] COc1ccc(S(=O)(=O)N(CCO)c2ccccc2CN(C)C/C=C/c2ccc(Cl)cc2)cc1 [KN-93 Phosphate]
[2] O=c1cc(N2CCOCC2)oc2c(-c3ccccc3)cccc12
Which entry has a larger number for ΔTm at 10 µM, 1 or 2 ? Response format: the label of the selected entry. 1
(1: -0.375 °C, 2: -0.881 °C)

[P] CC(C)(C)c1cnc(CSc2cnc(NC(=O)C3CCNCC3)s2)o1
[Q] CC(C)(C)c1cc(/C=C(\C#N)C(N)=S)cc(C(C)(C)C)c1O
Which entry has a larger number for ΔTm at 10 µM, P or Q ? Response format: the label of the selected entry. Q

[I] CN(C)CCOc1ccc(-c2nc(-c3ccncc3)c(-c3ccc4c(c3)CC/C4=N\O)[nH]2)cc1
[II] CNC(=O)CN1CCC(Oc2cc3c(Nc4cccc(Cl)c4F)ncnc3cc2OC)CC1 [AZD8931 (Sapitinib)]
[III] O=C(NCc1cccc(O)c1)Nc1nc(-c2ccncc2)cs1
# rank_down: sort by ΔTm at 10 µM, max first Give the order by naming the labels one after another as requested. III, I, II

[a] CC[C@H](Nc1ncnc2[nH]cnc12)c1nc2cccc(F)c2c(=O)n1-c1ccccc1
[b] CCN(CCO)CCCOc1ccc2c(Nc3cc(CC(=O)Nc4cccc(F)c4)[nH]n3)ncnc2c1
Which entry has a larger number for ΔTm at 10 µM, a or b ? Response format: the label of the selected entry. a
(a: -0.612 °C, b: -1.11 °C)

[I] Nc1nc(N)c2nc(-c3cccc(O)c3)c(-c3cccc(O)c3)nc2n1
[II] NC(=O)Nc1sc(-c2ccc(F)cc2)cc1C(N)=O
Which entry has a larger number for ΔTm at 10 µM, I or II ? Response format: the label of the selected entry. II
(II: -0.582 °C, I: -0.852 °C)
